Assay: Antifungal activity against Exophiala oligosperma by microdilution test
Assay type: functional
Decision: MIC beneath 300 µg/mL gives t; MIC meeting or exceeding 300 µg/mL gives f.

Illustrative cases are given below, each with its answer.
CC(CN1c2ccccc2Sc2ccccc21)N(C)C (stereo unspecified) = t
CN(C)S(=O)(=O)c1ccc2c(c1)N(CCCN1CCC(CCO)CC1)c1ccccc1S2 = f
Nc1nc(=O)[nH]cc1F = t

Request: is_below(MIC, 300 µg/mL) for CN(C/C=C/C#CC(C)(C)C)Cc1cccc2ccccc12 ?
Result: t

Request: is_below(MIC, 300 µg/mL) for CCC(C)n1ncn(-c2ccc(N3CCN(c4ccc(OCC5COC(Cn6cncn6)(c6ccc(Cl)cc6Cl)O5)cc4)CC3)cc2)c1=O (stereo unspecified) ?
Result: t

Request: is_below(MIC, 300 µg/mL) for O=C(CCl)N1c2ccccc2Sc2ccccc21 ?
Result: t

FYI, the data here is from ChEMBL document CHEMBL1649364.
